Ref: patent US20090136460A1

measuredOn: A1 receptors (Mus musculus, UniProt Q60612)
Sequence (Q60612 whole entry): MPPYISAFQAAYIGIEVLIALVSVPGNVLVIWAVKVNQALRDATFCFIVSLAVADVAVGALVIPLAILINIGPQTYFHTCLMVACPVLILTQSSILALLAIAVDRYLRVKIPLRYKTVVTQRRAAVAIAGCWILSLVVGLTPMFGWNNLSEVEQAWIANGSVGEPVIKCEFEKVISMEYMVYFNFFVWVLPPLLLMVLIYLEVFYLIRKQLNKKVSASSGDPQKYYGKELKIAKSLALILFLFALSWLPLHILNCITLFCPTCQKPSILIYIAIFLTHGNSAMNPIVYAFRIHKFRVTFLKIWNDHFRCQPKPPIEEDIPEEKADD
measurementDescription: Inhibition of forskolin-stimulated cAMP accumulation in mouse eEPCs
experimentalContext: read-out: EC50, antagonism of the action of CPA on forskolin-stimulated cAMP accumulation; eEPCs; 10 nmol/L CPA; 1 μmol/L forskolin
pEC50: −log10 of the molar value.

{"molecule": "Cn1cnc2c(NC3CC4CCC3C4)ncnc21 (stereo not shown) [N-0861]", "pEC50": 6.29}
